Assay: recombinant UMI read abundance after kanamycin selection (control-corrected) (log10(CPM+1)); higher = more efficient recombination; extreme values may be limits of the assay; sequences stand for … in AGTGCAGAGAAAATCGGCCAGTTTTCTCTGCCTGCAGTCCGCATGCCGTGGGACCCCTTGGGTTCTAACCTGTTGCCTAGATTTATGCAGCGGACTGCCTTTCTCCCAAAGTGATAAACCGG…AGGTTGGTTTCACT; site = the 11-nt donor
Use 1.0 when the recorded recombinant UMI read abundance (log10) is no lower than 0.4; use 0.0 when it is lower.

TTACTAACATGGACCGGTTTTCCCGGTAATCCGTATTTGGA (site TTACTAACTTC)	0.0
AGCCTTTCATGGACCGGTTTTCCCGGTAATCCGTATTTGAC (site AGCCTTACTGT)	0.0
GGCGATACATGGACCGGTTTTCCCGGTAATCCGTATTTGTT (site GGCGATACTAA)	1.0
TACATGGCATGGACCGGTTTTCCCGGTAATCCGTATTTGCT (site TACATGGCTAG)	1.0
CCTTAAGCATGGACCGGTTTTCCCGGTAATCCGTATTTGAT (site CCTTAAGCTAT)	0.0
AGGTTCCCATGGACCGGTTTTCCCGGTAATCCGTATTTGAG (site AGGTTCCCTCT)	0.0
AGCCCAGCATGGACCGGTTTTCCCGGTAATCCGTATTTGTT (site AGCCTAGCTAA)	0.0
CTGCAAACATGGACCGGTTTTCCCGGTAATCCGTATTTGCA (site CTGGAAACTTG)	0.0

Below: the item to evaluate.
hey, is recombinant UMI read abundance (log10) for this one >= 0.4? TGCAATCCATGGACCGGTTTTCCCGGTAATCCGTATTTGTT (site TGCAATCCTAA) 1.0

###

Test: recombinant barcode read abundance after kanamycin selection (control-corrected) (log10(CPM+1)); higher = more efficient recombination; sequences stand for … in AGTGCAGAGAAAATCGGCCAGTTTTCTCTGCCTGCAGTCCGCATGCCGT…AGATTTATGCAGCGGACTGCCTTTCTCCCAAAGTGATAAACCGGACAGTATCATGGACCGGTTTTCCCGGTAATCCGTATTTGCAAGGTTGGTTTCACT; site = the 11-nt target
recordedEndpoint: recombinant barcode read abundance (log10)
Give bare numbers.

Would you please look over these solved cases?
GACCAGCCTTGGGTTCTAACCTGTTGCAT (site GACCAGCCTAT)	1.82
TATGTGTCTTGGGTTCTAACCTGTTGCCT (site TAAGTGTCTAG)	1.67
CTAAACCCTTGGGTTCTAACCTGTTGCGT (site CTACACCCTTC)	0.0729

Hi team, please reply with recombinant barcode read abundance (log10) for each item in this list.
1. CGCTGGCCTTGGGTTCTAACCTGTTGCTT (site CGCTGTCCTAA)
2. GAGTTTGCTTGGGTTCTAACCTGTTGCCT (site GTGTTTGCTAG)
3. AAGCTAACTTGGGTTCTAACCTGTTGCCT (site AAGCCAACTAG)
4. CTATGCCCTTGGGTTCTAACCTGTTGCGA (site CTATGCCCTTA)
5. CCGACTCCTTGGGTTCTAACCTGTTGCCT (site CCGACTCCTAG)

[0.0658, 0.0382, 0.299, 0.129, 0.13]

// provenance: the supplement of paper PMC11208160
